Values were extracted from patent US11512053B2.

A collection of compounds and their measured pIC50
# study.target: full-length human PRMT8 isoform 1 (Homo sapiens, UniProt Q9NR22)
# Sequence (Q9NR22 whole entry, canonical isoform): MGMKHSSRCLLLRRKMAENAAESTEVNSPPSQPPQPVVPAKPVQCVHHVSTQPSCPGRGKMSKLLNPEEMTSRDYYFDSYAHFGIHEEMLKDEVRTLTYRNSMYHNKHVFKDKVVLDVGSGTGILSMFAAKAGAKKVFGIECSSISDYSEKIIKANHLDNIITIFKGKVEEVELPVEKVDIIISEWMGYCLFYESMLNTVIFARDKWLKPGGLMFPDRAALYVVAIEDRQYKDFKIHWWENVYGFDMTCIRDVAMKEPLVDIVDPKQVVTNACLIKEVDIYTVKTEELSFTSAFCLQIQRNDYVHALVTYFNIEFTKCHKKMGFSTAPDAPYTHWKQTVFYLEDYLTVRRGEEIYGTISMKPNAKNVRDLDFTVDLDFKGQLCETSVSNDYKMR
# measurement.protocol: PRMT8 Biochemical Assay (3H-SAM Flashplate, peptide substrate)
# conditions.used: read-out: Biochemical IC50 PRMT8
pIC50: −log10 of the molar value.

Fill blank: measured pIC50 of the compound CNCCN(C)Cc1c[nH]nc1[C@H]1CCC(C)(C)[C@@H](C(=O)NCCCOC)C1 [Compound 270] is ____.
6.00 to 7.00

So what's the measured pIC50 for this one? CNCCN(C)Cc1c[nH]nc1[C@H]1CC[C@@H](C(=O)N(C)CC(C)C)CC1 [Compound 215]
> 7.00

Given the compound CNCCN(C)Cc1c[nH]nc1C1CCC(C)(C)[C@@H](C(=O)NCCC(C)C)C1 (some centres unmarked) [Compound 263] , what is its reported pIC50?
> 7.00

Field request: pIC50 | item: CNCCN(C)Cc1c[nH]nc1[C@H]1CC[C@@]2(CCC(C)(C)O2)CC1 [Compound 260]
> 7.00

Form field: reported pIC50 of CNCCN(C)Cc1c[nH]nc1C1CCC2(CCC(C)(C)CC2)OC1 (centres unmarked) [Compound 65]
> 7.00

State the recorded pIC50 for this entry: CNCCN(C)Cc1c[nH]nc1[C@H]1CC[C@H](COC)CC1 [Compound 167]
> 7.00

What value of pIC50 has been recorded for this entry: CCN1C(=O)N(C)CC12CCC(c1n[nH]cc1CN(C)CCNC)CC2 (centres unmarked) [Compound 162]
> 7.00

Which pIC50 value belongs to CNCCN(C)Cc1c[nH]nc1C1CCC(=O)N(CCc2ccccc2)C1 (centres unmarked) [Compound 110] ?
> 7.00

Consider the compound shown here: CNCCN(C)Cc1c[nH]nc1C1CCC2(CCCCO2)CC1 (centres unmarked) [Compound 137] What is its recorded pIC50?
> 7.00

Which pIC50 is listed for CCN(C(=O)CC1CCOCC1)[C@H]1CC[C@H](c2n[nH]cc2CN(C)CCNC)CC1 [Compound 195] ?
> 7.00

Tell me the measured pIC50 of CNCCN(C)Cc1c[nH]nc1[C@H]1CC[C@H](N(CCOc2ccccc2)C(=O)CCOC)CC1 [Compound 219] , please.
> 7.00

What does the record list as pIC50 for CNCCN(C)Cc1c[nH]nc1[C@H]1CC[C@@]2(CCN(Cc3cc(F)cc(F)c3)C2=O)CC1 [Compound 126] ?
> 7.00

Please give the measured pIC50 for this compound: CCOC[C@@H]1C[C@H](COCC)C[C@H](c2n[nH]cc2CN(C)CCNC)C1 [Compound 189]
6.00 to 7.00

Reported pIC50, compound CNCCN(C)Cc1c[nH]nc1[C@H]1CC[C@@H](C(=O)N(C)CCC(C)C)CC1 [Compound 210] : ____
> 7.00

Fill in: pIC50 of CNCCN(C)Cc1c[nH]nc1C1C[C@H](C(=O)N(C)CC(C)C)C(C)(C)[C@H](C(=O)N(C)CC(C)C)C1 (some centres unmarked) [Compound 267] is ___
5.00 to 5.52

Dear colleague, I am looking for the recorded pIC50 of the following compound: CCC(=O)N(CC1CCOCC1)[C@H]1CC[C@@H](c2n[nH]cc2CN(C)CCNC)CC1 [Compound 108]
6.00 to 7.00

Reported pIC50 for CNCCN(C)Cc1c[nH]nc1C1CCC(C)(C)[C@H](C(=O)NCC(C)C)C1 (some centres unmarked) [Compound 262] : what is it?
> 7.00
